# Test system: MS2 coat protein
# Assay notes: apparent KD of MS2 coat protein; designed switch direction (-1 OFF switch, 1 ON switch): 1; higher = weaker reporter binding
# Run conditions: Eterna round: R95; input ligand: none
Entries and their apparent KD of MS2 coat protein

{"columns": ["Sequence chain", "apparent KD of MS2 coat protein (nM)"],
 "data": [
  ["GGGAAGAGGGACAAGGAUAUGUCAGGAGAGACAUGAGGAUCACCCAUGUGGAGGUUGGAGCAGAGACAGAAGGUGUACGGAGAGA [JR_SS2_Sub010] (puzzle: Same State 2)", 145],
  ["AAUUUGGGACAUGAGGAUCACCCAUGUAUUAUAAAUGGGACAAGUUUUUUGCUCGUCUUAUACAUGGGUGAAAAUCU [Test] (puzzle: Sensor for hsa-mir-208a version 2)", 23.7],
  ["GUUCCACAUGAGGAUCACCCAUGUCACGAACACGCAGGAUAUUGCCUGAGUUUGGACAGGUAAGAAGGGUGAGAGA [Dibeante] (puzzle: Same State 1)", 28.9]
]}

====

# Tested on: K4 kissing-loop RNA reporter;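 also: bound reporter read as fluorescence of individual clusters on recovered sequencing chips by microscopy, with normalized cluster intensities fitted with a binding model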
# Assay notes: apparent KD of K4 kissing-loop reporter; higher = weaker reporter binding
# Run conditions: Eterna round: R107; input ligand: tryptophan 2.4 mM
Entries and their apparent KD of K4 kissing-loop reporter

{"columns": ["Sequence chain", "apparent KD of K4 kissing-loop reporter [nM]"],
 "data": [
  ["UCCUACGAGGUAACGUGGAUAUCUCGUUGCAAGGAUAUCUGGAAACAGAGAAGGUGCAACAUUAUCGGCAGUGAUGUUGCUGACC", 280],
  ["AAGUAGAUCAAGAUCUAGUAUCUAGAUCAACGAGGACCGGUACGGCCGCCACUCGAAUAAUAGAGUGAUGUUCUAAGAUCUACAA [AK1.4 SS Tryptophan A]", 445],
  ["AGAGUUAUAUGAGGAUAUGGGAUAGUAAAUGAGUGAGUUAUAGUGUAGUUUGUUUAGUGAUGUUAUUUAGAAGGCGUGAGUGAUG [dgnnmullin]", 86.4],
  ["UCUGGAGCAUAUGAUACCAGCAGUGAGAGACAGGAAGUAUAGUGAUGUUAUAUGAGAGAAUGCCCUUGGCAGCGUGUGUAGUGGG [SSTheophylB.N]", 104],
  ["UGCUUUAUCAGAAGGAGCGCGUAAGUUAUACUAAUAAUCAGUGAUGUUGAUAUAUGAUCUUUGCAGGUAGGUCGCUGAUAUAGCU [KL-XARG-B4]", 472],
  ["UUGAGCCGGACUUAAGUCCGGCUCUGCGAGCGAGGACCGGUACGGCCGCCACUCGGUGCAGUGAUGUUGCAUGGCCGCAAGGCCG [#2 Exclusion - Tryptophan A Attempt #11 (HarryS)]", 296],
  ["CAUAGGAAACUAUGUAUCUCUCUUACUGAAGGAGCGCGUGAAAACGCAGGUAGGUCGCAGAAUUUAAAAGAGAGUGAUGUUCUCU [Ex Arginine A K4 8]", 301],
  ["UGCAGUGAUGUUGCGAGUGGCAGAUACGAAGGAGCGUGGUGAGACACAGGUAGGUCGCGUAUUGAAAUUGCUGUCACUAAAAUGC [#7]", 362],
  ["GUCUCGAGUGAUGUUCGGGUCGAUUGGGAAGGAGCGCCCGGAAGGGCAGGUAGGUCGCCCGGGCCGCGCGGGAAACCGCGCGUCC [#2 Same State - Arginine A Attempt #8 (HarryS)]", 154],
  ["GUGGUACAGGCGGCCGCCACUAGUGAUGUUAGUGAUAGAAGAUAUAGUAAAUAUCGGCAUUUAGAUAGGACCGGGCCUGGUGGUG [xxfxcmullin]", 267],
  ["UUUAACGAGUGAUGUUCGAAAAGUAAUAGUUAGGAUAUCGUUUUUUCGAGAAGGAACUUCGAAGUGAUACGAAAGUAUCGCUUCG [FMN A 1]", 181],
  ["GGCAGUGAUGUUGCCAGUGGCAGAUGUGAAGGAGCGCGGUGAGACGCAGGUAGGUCGCACAUUGAAAUUGCUGUCACUAAAAUGC [#02 K4 Arginine A Exclusion]", 215],
  ["CUUAUGGCGUUUGGAAGGAGCGGCUCAUCACGAGGACCGGUACGGCCGCCACUCGAGAGAGCAUAAGAAAGUGAUGUUUUCGGUU [theeternabot_sameState_KL_Trp_A_44]", 314],
  ["ACGAUUUACAGAAGGAGCGUGUAUUUAACUACAAUUAUCAUAGCGAGUGAUGUUCGUUAUACACAGGUAGGUCGCUGUAUAUCGA [JR_ExcArginiB_Sub012]", 397],
  ["AAUAAUCUAGGUGAUACCAGCUCAACAUGAGUGAUGUUCAUGAACUAAUGUAGAGUUGAGAGCCCUUGGCAGCACCUAGAUAAUA [KL-SSTheoB6]", 962],
  ["AGACUAUCGUCAAAGACGGUAGUCAAAAGUGAGGAUAUAGUGAUGUUUAGAAGGCACUAAGACUGUAUCGAAUAGAUACGGUCAA [FmnA 1 #K4BetweenAptamer #OpenEnded]", 1920],
  ["AAAUAGAUCAGUCACCCAGUGAUGUUGGAAGGAGCGUGCGAAAGCACAGGUAGGUCGCCAAAAUAAAAGUGGCUGAUCAAAAUAA [#SwitchBubble 5 #K4Early]", 226],
  ["AGGAUGUAGUGAUGUUAUAUAAGAAGUAAACGAGGACCGGUACGGCCGCCACUCGAAGCGGCUACUAGCGUGUUGCGAGGUGCGC [ExTryptoA.Cd]", 197],
  ["AAGAGAUAGGGAGGAUAUGCCCUAUUGAGAACCGAGUGAUGUUCGGUAGGACAAAUAGUCCACAGGGUAGAAGGCCCACAUCACA [SS FNM B Tesla 2]", 267],
  ["AGACUACCACACUGUCAAUAGACAGUGAACUAGGAUAUGCUGAUAAGCAGAAGGAGUGAUGUUCCUAAAGGUAGUCAAAUAUAAU [FmnAX 14 #SwitchBubble #StaticStem #K4Early]", 351],
  ["GGAUAGGAUAGAGGAUAUGGAAAACACAAAAGUGACUUGUUGUGUUUAUCCAUAGGGAGUGAUGUUCCAGAAGGCUGUCCUAUCG [MatMod 23 - Jieux - Exclusion - FMN B]", 136],
  ["UAAUAUCCGUCGGCCGCCACUCACUAGUGAUGUUAGAGGAGUGAUGUUCCACGAGUGAUGUUCGAGAGGACCGGGACGGACGAUG [7th]", 54.9],
  ["AGUGGACGUUACCGGAGUGAUGUUUCGGAUACCAGACACGAAAGUGUCCCUUGGCAGCCGUAGUGAUGUUACGGAGUUCACUAAA [KL-XTheo-A12 #KL 2]", 85.1]
]}
